Study System: hA2a (Homo sapiens (Human))
Sequence (P29274 whole entry): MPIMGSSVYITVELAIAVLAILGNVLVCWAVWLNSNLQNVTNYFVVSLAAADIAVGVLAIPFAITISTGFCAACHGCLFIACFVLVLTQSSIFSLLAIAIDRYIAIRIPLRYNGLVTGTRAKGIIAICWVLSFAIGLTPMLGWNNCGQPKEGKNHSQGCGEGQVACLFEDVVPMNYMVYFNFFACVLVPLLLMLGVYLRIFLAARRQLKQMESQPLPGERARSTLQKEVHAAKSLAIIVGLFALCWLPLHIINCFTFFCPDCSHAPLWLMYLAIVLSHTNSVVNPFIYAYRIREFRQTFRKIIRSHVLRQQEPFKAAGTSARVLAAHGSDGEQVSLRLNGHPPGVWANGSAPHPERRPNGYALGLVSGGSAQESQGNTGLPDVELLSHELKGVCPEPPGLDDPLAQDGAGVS
Assay Notes: cAMP inhibition assay in hA2a/CHO cells
Assay type: cell-based
Experimental Parameters: 10 μM adenosine, read-out: cAMP & FLIPR IC50 (nM) hA2a
Quantity Measured: IC50
Lab note: write values as number then unit, every time.

Using the record for Cc1cnc2ccc(-c3c(-c4ccc(F)cc4)nc(N)n4nc(CC5CCOC5)nc34)cn12 (single isomer, unassigned; isomer 2) [Example 105-2] , report its IC50.
0.1 nM

* * *

Study System: UniProt Q60613
Sequence (Q60613 whole entry): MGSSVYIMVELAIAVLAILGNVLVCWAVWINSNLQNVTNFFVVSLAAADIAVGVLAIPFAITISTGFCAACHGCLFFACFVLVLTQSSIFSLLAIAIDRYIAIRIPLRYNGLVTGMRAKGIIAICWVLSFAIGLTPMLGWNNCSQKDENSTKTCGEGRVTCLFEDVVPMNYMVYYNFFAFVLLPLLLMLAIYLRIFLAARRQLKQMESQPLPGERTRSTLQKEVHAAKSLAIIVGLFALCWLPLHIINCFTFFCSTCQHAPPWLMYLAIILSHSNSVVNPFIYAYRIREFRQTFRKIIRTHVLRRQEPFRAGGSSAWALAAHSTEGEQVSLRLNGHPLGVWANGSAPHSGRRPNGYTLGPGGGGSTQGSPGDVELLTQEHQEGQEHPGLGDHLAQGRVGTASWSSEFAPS
Assay Notes: cAMP inhibition assay in mA2a/CHO cells
Format: cell-based
Experimental Parameters: 10 μM adenosine, read-out: cAMP & FLIPR IC50 (nM) mA2a
Quantity Measured: IC50 (nM)
Numeric answer only, unit nM assumed.

Using the record for Cc1cnc2ccc(-c3c(-c4ccc(F)cc4)nc(N)n4nc(CC5CCOC5)nc34)cn12 (single isomer, unassigned; isomer 2) , report its IC50.
1
